SYSTEM: human GPR40 (Homo sapiens, UniProt O14842)
Construct: expressed in transfected cells
Sequence (O14842 whole entry): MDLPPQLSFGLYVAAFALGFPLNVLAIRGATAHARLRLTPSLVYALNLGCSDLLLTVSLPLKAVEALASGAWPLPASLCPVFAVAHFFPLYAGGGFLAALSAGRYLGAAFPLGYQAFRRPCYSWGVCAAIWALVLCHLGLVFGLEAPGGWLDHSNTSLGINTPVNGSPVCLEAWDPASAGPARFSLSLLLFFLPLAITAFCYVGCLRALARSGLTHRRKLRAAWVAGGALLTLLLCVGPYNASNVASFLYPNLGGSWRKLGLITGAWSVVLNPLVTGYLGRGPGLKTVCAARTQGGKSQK
MEASUREMENT NOTES: Evaluation of human GPR40 agonist activity with increase in intracellular Ca2+ concentration as an index (FLIPR)
Format: cell-based
ASSAY CONTEXT: test compound 1 μM; CHO(dhfr−) cells stably expressing human GPR40; 100% = 10 μM compound of Example 153, 0% = DMSO
MEASUREMENT LABEL: activation at 1 µM (%)

molecule="COc1ccc(C(=O)N(CC(F)(F)F)c2cc(C)ccn2)c(N2CCC(COc3cc(C(CC(=O)O)C4CC4)ccn3)CC2)c1 (stereo not shown) [Example 148]" unit_symbol=% val=104
molecule="COc1ccc(C(=O)N(CC(C)(C)O)c2ccccn2)c(N2CCC(COc3cc(C(CC(=O)O)C4CC4)ccn3)CC2)c1 (stereo not shown) [Example 119]" unit_symbol=% val=52
molecule="COc1ccc(C(=O)N(CC(C)(C)C)c2ncccn2)c(N2CCC(COc3cc(C(CC(=O)O)C4CC4)c(F)cn3)CC2)c1 (stereo not shown) [Example 273]" unit_symbol=% val=101
molecule="COc1ccc(C(=O)N(CC(C)(C)C)c2cc(C)ccn2)c(N2CCC(COc3cc(C(CC(=O)O)C4CC4)ccn3)CC2)c1 (stereo not shown) [Example 112]" unit_symbol=% val=98
molecule="COc1ccc(C(=O)N(CC(F)(F)F)c2cc(C)nc(C)n2)c(N2CCC(COc3cc(C(CC(=O)O)C4CC4)ccn3)CC2)c1 (stereo not shown) [Example 238]" unit_symbol=% val=101
molecule="COc1ccc(C(=O)N(CC2CCCCC2)c2ccccn2)c(N2CCC(COc3cc(C(CC(=O)O)C4CC4)ccn3)CC2)c1 (stereo not shown) [Example 195]" unit_symbol=% val=98
molecule="CC(C)(C)CN(C(=O)c1ccc(Cl)nc1N1CCC(COc2cccc(C(CC(=O)O)C3CC3)c2)CC1)c1ccccn1 (stereo not shown) [Example 59]" unit_symbol=% val=73

----------
SYSTEM: human GPR40 (Homo sapiens)
Construct: expressed in transfected cells
MEASUREMENT NOTES: Evaluation of human GPR40 agonist activity with increase in intracellular Ca2+ concentration as an index (FLIPR)
Type: cell-based
ASSAY CONTEXT: test compound 1 μM; CHO(dhfr−) cells stably expressing human GPR40; 100% = 10 μM compound of Example 153, 0% = DMSO
MEASUREMENT LABEL: activation at 1 µM (%)

molecule="COc1ccc(C(=O)N(CC(F)(F)F)c2cc(C)ncn2)c(N2CCC(COc3cc(C(CC(=O)O)C4CC4)ccn3)CC2)c1 (centres unmarked)" system="human GPR40 (Homo sapiens)" measurement_label="activation at 1 µM" unit_symbol=% val=99
molecule="COc1ccnc(N(CC(C)C)C(=O)c2ccc(OC)cc2N2CCC(COc3cc(C(CC(=O)O)C4CC4)ccn3)CC2)c1 (centres unmarked)" system="human GPR40 (Homo sapiens)" measurement_label="activation at 1 µM" unit_symbol=% val=94
molecule="COc1ccc(C(=O)N(CC(C)(C)C)c2cc(C)nc(C)n2)c(N2CCC(COc3cc(C(CC(=O)O)C4CC4)ccn3)CC2)c1 (centres unmarked)" system="human GPR40 (Homo sapiens)" measurement_label="activation at 1 µM" unit_symbol=% val=99
molecule="COc1ccc(C(=O)NC2CCN(CC(F)(F)F)CC2)c(N2CCC(COc3cc(C(CC(=O)O)C4CC4)ccn3)CC2)c1 (centres unmarked)" system="human GPR40 (Homo sapiens)" measurement_label="activation at 1 µM" unit_symbol=% val=39
molecule="COc1ccc(C(=O)N(CC(F)(F)C(F)(F)F)c2nccc(C)n2)c(N2CCC(COc3cc(C(CC(=O)O)C4CC4)ccn3)CC2)c1 (centres unmarked)" system="human GPR40 (Homo sapiens)" measurement_label="activation at 1 µM" unit_symbol=% val=106
molecule="COc1ccc(C(=O)N(CC(C)(C)C#N)c2ccccn2)c(N2CCC(COc3cc(C(CC(=O)O)C4CC4)ccn3)CC2)c1 (centres unmarked)" system="human GPR40 (Homo sapiens)" measurement_label="activation at 1 µM" unit_symbol=% val=84
molecule="COc1ccc(C(=O)N(CC(C)(C)C)c2nccc(C)n2)c(N2CCC(COc3cc(C(CC(=O)O)C4CC4)ccn3)CC2)c1 (centres unmarked)" system="human GPR40 (Homo sapiens)" measurement_label="activation at 1 µM" unit_symbol=% val=103
molecule="COc1ccc(C(=O)N(CC(C)(F)F)c2cc(C)ccn2)c(N2CCC(COc3cc(C(CC(=O)O)C4CC4)ccn3)CC2)c1 (centres unmarked)" system="human GPR40 (Homo sapiens)" measurement_label="activation at 1 µM" unit_symbol=% val=97
molecule="COc1ccc(C(=O)N(Cc2ccccc2)c2ccccn2)c(N2CCC(COc3cc(C(CC(=O)O)C4CC4)ccn3)CC2)c1 (centres unmarked)" system="human GPR40 (Homo sapiens)" measurement_label="activation at 1 µM" unit_symbol=% val=103
molecule="COc1ccc(C(=O)Nc2ccccn2)c(N2CCC(COc3cc(C(CC(=O)O)C4CC4)ccn3)CC2)c1 (centres unmarked)" system="human GPR40 (Homo sapiens)" measurement_label="activation at 1 µM" unit_symbol=% val=93
molecule="COc1ccc(C(=O)N(CC(C)(C)C)c2ccccn2)c(N2CCC(COc3cccc(C(CC(=O)O)C4CC4)c3)CC2)n1 (centres unmarked)" system="human GPR40 (Homo sapiens)" measurement_label="activation at 1 µM" unit_symbol=% val=74
molecule="COc1ccc(C(=O)N(CCC(C)C)c2ccccn2)c(N2CCC(COc3cc(C(CC(=O)O)C4CC4)ccn3)CC2)c1 (centres unmarked)" system="human GPR40 (Homo sapiens)" measurement_label="activation at 1 µM" unit_symbol=% val=103
molecule="COc1ccc(C(=O)Nc2cccc(C)n2)c(N2CCC(COc3cc(C(CC(=O)O)C4CC4)ccn3)CC2)c1 (centres unmarked)" system="human GPR40 (Homo sapiens)" measurement_label="activation at 1 µM" unit_symbol=% val=95
molecule="COc1ccc(C(=O)N(CC(C)C)c2ccccc2)c(N2CCC(COc3cc(C(CC(=O)O)C4CC4)ccn3)CC2)c1 (centres unmarked)" system="human GPR40 (Homo sapiens)" measurement_label="activation at 1 µM" unit_symbol=% val=98
molecule="COc1ccc(C(=O)N(CC2CC2(F)F)c2ccccn2)c(N2CCC(COc3cc(C(CC(=O)O)C4CC4)ccn3)CC2)c1 (centres unmarked)" system="human GPR40 (Homo sapiens)" measurement_label="activation at 1 µM" unit_symbol=% val=96
molecule="COc1ccc(C(=O)N(CC(C)(C)C)c2cccc(C)n2)c(N2CCC(C(C)Oc3cc(C(CC(=O)O)C4CC4)ccn3)CC2)c1 (centres unmarked)" system="human GPR40 (Homo sapiens)" measurement_label="activation at 1 µM" unit_symbol=% val=92
molecule="COc1ccc(C(=O)N(CC(C)(C)C)c2ccccn2)c(N2CC[C@H](COc3cccc(C(CC(=O)O)C4CC4)c3)[C@@H](C)C2)c1 (some centres unmarked)" system="human GPR40 (Homo sapiens)" measurement_label="activation at 1 µM" unit_symbol=% val=92
molecule="Cc1cccc(N(CC(C)(C)C)C(=O)c2ccc(O)cc2N2CCC(COc3cc(C(CC(=O)O)C4CC4)ccn3)CC2)n1 (centres unmarked)" system="human GPR40 (Homo sapiens)" measurement_label="activation at 1 µM" unit_symbol=% val=77
molecule="COc1ccc(C(=O)N(CC(C)C)c2ccccn2)c(N2CCC(COc3cc(C(CC(=O)O)C4CC4)ccn3)CC2)c1 (centres unmarked)" system="human GPR40 (Homo sapiens)" measurement_label="activation at 1 µM" unit_symbol=% val=102
molecule="CCC(C)(C)CN(C(=O)c1ccc(OC)cc1N1CCC(COc2cc(C(CC(=O)O)C3CC3)ccn2)CC1)c1ccccn1 (centres unmarked)" system="human GPR40 (Homo sapiens)" measurement_label="activation at 1 µM" unit_symbol=% val=101
molecule="COc1ccc(C(=O)N(CC(C)(C)OC)c2ccccn2)c(N2CCC(COc3cc(C(CC(=O)O)C4CC4)ccn3)CC2)c1 (centres unmarked)" system="human GPR40 (Homo sapiens)" measurement_label="activation at 1 µM" unit_symbol=% val=85
molecule="COc1ccc(C(=O)N(CC(C)(C)C)c2nc(C)cc(C)n2)c(N2CCC(COc3cc(C(CC(=O)O)C4CC4)ccn3)CC2)c1 (centres unmarked)" system="human GPR40 (Homo sapiens)" measurement_label="activation at 1 µM" unit_symbol=% val=104
molecule="COc1ccc(C(=O)N(CC(F)F)c2ncccn2)c(N2CCC(COc3cc(C(CC(=O)O)C4CC4)ccn3)CC2)c1 (centres unmarked)" system="human GPR40 (Homo sapiens)" measurement_label="activation at 1 µM" unit_symbol=% val=90
molecule="COCC(CC(=O)O)c1cccc(OCC2CCN(c3cc(OC)ccc3C(=O)N(CC(C)(C)C)c3cccc(C)n3)CC2)c1 (centres unmarked)" system="human GPR40 (Homo sapiens)" measurement_label="activation at 1 µM" unit_symbol=% val=96
molecule="COCC(C)(C)CN(C(=O)c1ccc(OC)cc1N1CCC(COc2cc(C(CC(=O)O)C3CC3)ccn2)CC1)c1ccccn1 (centres unmarked)" system="human GPR40 (Homo sapiens)" measurement_label="activation at 1 µM" unit_symbol=% val=96
molecule=COc1ccc(C(=O)N(CC(C)(C)C)c2nc(C)cc(C)n2)c(N2CCC(COc3cc([C@@H](CC(=O)O)C4CC4)ccn3)CC2)c1 system="human GPR40 (Homo sapiens)" measurement_label="activation at 1 µM" unit_symbol=% val=103

Source: patent US9776962B2
